study-target: Cholinesterase (Homo sapiens, UniProt P06276)
Sequence (P06276 whole entry): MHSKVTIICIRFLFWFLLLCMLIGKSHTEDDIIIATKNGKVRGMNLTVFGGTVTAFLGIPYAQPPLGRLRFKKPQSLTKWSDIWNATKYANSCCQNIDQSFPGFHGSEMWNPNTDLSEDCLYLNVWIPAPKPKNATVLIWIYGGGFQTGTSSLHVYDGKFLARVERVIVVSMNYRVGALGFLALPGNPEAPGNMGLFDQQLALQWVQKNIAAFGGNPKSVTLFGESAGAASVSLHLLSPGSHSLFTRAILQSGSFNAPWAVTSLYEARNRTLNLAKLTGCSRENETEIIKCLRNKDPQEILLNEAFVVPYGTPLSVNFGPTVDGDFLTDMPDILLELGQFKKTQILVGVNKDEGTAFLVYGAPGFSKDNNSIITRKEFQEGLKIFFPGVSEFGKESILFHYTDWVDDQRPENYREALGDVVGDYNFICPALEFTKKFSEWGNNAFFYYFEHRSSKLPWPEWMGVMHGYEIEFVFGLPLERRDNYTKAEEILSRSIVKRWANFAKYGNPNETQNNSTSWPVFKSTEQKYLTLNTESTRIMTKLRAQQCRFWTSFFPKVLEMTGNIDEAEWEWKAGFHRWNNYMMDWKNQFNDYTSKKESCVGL
assay-explanation: In vitro inhibition of human plasma butyrylcholinesterase.
property-measured: pIC50
# reply with the number alone; pIC50 is -log10 of concentration in mol/L

- compound: "CCc1cccc(CC)c1NC(=O)Oc1ccc2c(c1)[C@]1(C)CCN(C)[C@@H]1N2C"
  pIC50: 5.96
- compound: "Cc1cc(C)cc(NC(=O)Oc2ccc3c(c2)[C@]2(C)CCN(C)[C@@H]2N3C)c1"
  pIC50: 6.10
- compound: "Cc1cccc(NC(=O)Oc2ccc3c(c2)[C@]2(C)CCN(C)[C@@H]2N3C)c1"
  pIC50: 6.78

q: Look up and report measured pIC50 for this entry: Cc1cccc(NC(=O)Oc2ccc3c(c2)[C@]2(C)CCN(C)[C@@H]2N3C)c1C
a: 6.77

q: State its pIC50: Cc1ccc(C)c(NC(=O)Oc2ccc3c(c2)[C@]2(C)CCN(C)[C@@H]2N3C)c1
a: 6.31

q: Consider the compound Cc1cccc(C)c1NC(=O)Oc1ccc2c(c1)[C@]1(C)CCN(C)[C@@H]1N2C . State its measured pIC50.
a: 6.54

q: Provide only the value of recorded pIC50 for CN(C)Cc1cc2c(cc1OC(=O)Nc1ccccc1)[C@]1(C)CCN(C)[C@@H]1N2C
a: 5.41

q: Give pIC50 for Cc1cc2c(cc1OC(=O)Nc1ccccc1)[C@]1(C)CCN(C)[C@@H]1N2C
a: 5.30

q: Give the measured pIC50 for CN1CC[C@@]2(C)c3cc(OC(=O)Nc4ccccc4)ccc3N(C)[C@@H]12 [PHENSERINE]
a: 5.81

q: Input CC(C)c1ccccc1NC(=O)Oc1ccc2c(c1)[C@]1(C)CCN(C)[C@@H]1N2C , output reported pIC50.
a: 6.19

q: Please give measured pIC50 of the following entry: CNC(=O)Oc1cc2c(cc1C)N(C)[C@H]1N(C)CC[C@@]21C
a: 5.07

q: Give a short answer stating reported pIC50 for Cc1ccc(NC(=O)Oc2ccc3c(c2)[C@]2(C)CCN(C)[C@@H]2N3C)cc1C .
a: 7.18
